Entry source: ChEMBL document CHEMBL4513216

- protocol_text: Toxicity liver stage against HepG2, at 10uM
- Type: cell-based
- Design: test concentration 10 uM, cell line HepG2-A16-CD81EGFP
- run_parameters: human, HepG2-A16-CD81EGFP cells; read-out: INHIBITION
cytotoxicity at 10 µM listing for selected compounds.
Only the number, expressed in %, is required.

Consider the reported cytotoxicity at 10 µM for these compounds:
>>> val("CC(C)(C)NC(=O)C1CSCN1C(=O)CCc1ccco1 (centres undefined)")
-6.77
>>> val("CN1CCN(C[C@@H]2OC[C@H]3CN(Cc4ccncc4)CC[C@H]32)CC1")
1.96
>>> val("CCc1nnc(Nc2cccc(C3CCN(C(=O)CNC)CC3)n2)s1")
-31.2

[Q] State the recorded cytotoxicity at 10 µM for this entry: COCCN(CCOC)C(=O)c1cnn(C)c1C
[A] -149

[Q] # input compound: CC1=C(C#N)C(=O)N(C)C(=O)/C1=C\C1=Cc2ccccc2OC1 ; wanted: its cytotoxicity at 10 µM
[A] -39.4
